The origin of these recorded values is patent US8940742B2.

pIC50 values recorded for PI3K δ (Homo sapiens, UniProt O00329)
pIC50: −log10 of the molar value.

A selection of reference data follows.
[[record]]
compound = "C[C@H](NC(=O)c1nccnc1N)c1cc2cccc(-c3cnn(C)c3)c2c(=O)n1-c1ccccc1 [Compound 54]"
experimental_value = "5.00 to 6.00"

[[record]]
compound = "COC(=O)c1ncsc1-c1cccc2cc([C@H](C)NC(=O)c3c(N)nn4cccnc34)n(-c3ccccc3)c(=O)c12 [Compound 248]"
experimental_value = "< 5.00"

[[record]]
compound = "COc1cc(-c2cccc3cc([C@H](C)NC(=O)c4ncc(C)nc4N)n(-c4ccccc4)c(=O)c23)ccn1 [Compound 139]"
experimental_value = "5.00 to 6.00"

[[record]]
compound = "COc1ccc(-c2cnc(N)c(C(=O)N[C@@H](C)c3cc4cccc(Cl)c4c(=O)n3-c3ccccc3)n2)cc1OC [Compound 93]"
experimental_value = "5.00 to 6.00"

[[record]]
compound = "CC(C)Oc1ccc(-c2cnc(N)c(C(=O)N[C@@H](C)c3cc4cccc(Cl)c4c(=O)n3-c3ccccc3)n2)cc1 [Compound 106]"
experimental_value = "< 5.00"


// for each compound below, give its pIC50
1. C[C@H](NC(=O)c1c(N)nn2cccnc12)c1cc2cccc(Cl)c2c(=O)n1CC(=O)N(C)C [Compound 296]
2. C[C@H](NC(=O)c1c(N)ncc2cccnc12)c1cc2cccc(N3CCOCC3)c2c(=O)n1-c1ccccc1 [Compound 214]
3. C[C@H](NC(=O)c1c(N)nn2cccnc12)c1cc2cccc(Cl)c2c(=O)n1-c1ccccc1 [Compound 70]
4. CC(C)n1c([C@H](C)NC(=O)c2c(N)nn3cccnc23)cc2cccc(Cl)c2c1=O [Compound 73]
5. C[C@H](NC(=O)c1c(N)nn2cccnc12)c1cc2cccc(-c3cccs3)c2c(=O)n1-c1ccccc1 [Compound 271]
6. C[C@H](NC(=O)c1c(N)oc2cccnc12)c1cc2cccc(Cl)c2c(=O)n1-c1ccccc1 [Compound 298]
7. C[C@H](NC(=O)c1nc(-c2cccc(NS(=O)(=O)N(C)C)c2)cnc1N)c1cc2cccc(Cl)c2c(=O)n1-c1ccccc1 [Compound 99]
8. C[C@H](NC(=O)c1nc(-c2cccc(NS(C)(=O)=O)c2)c(N)nc1N)c1cc2cccc(Cl)c2c(=O)n1-c1ccccc1 [Compound 169]

1. < 5.00
2. 5.00 to 6.00
3. 6.00 to 7.00
4. 5.00 to 6.00
5. 5.00 to 6.00
6. 5.00 to 6.00
7. 6.00 to 7.00
8. 6.00 to 7.00

Would you kindly share the measured pIC50 for C[C@H](NC(=O)c1nc(-c2ccc(NS(C)(=O)=O)cc2)cnc1N)c1cc2cccc(Cl)c2c(=O)n1-c1ccccc1 [Compound 103] ? < 5.00
